# measurementProtocol: acute toxicity (LD50) in mice
# Assay type: in vivo, mouse
# conditionParameters: in vivo, po; mouse, per os; Table 4; read-out: A. lethal dose (LD50) to mice, per os
Please provide measured LD50 for the entries that follow.
Numeric answer only, unit mg/kg assumed.

Query: Record request: LD50 value, item CNC(=O)OC1CC2C(C)C3OC(OC)C2C1(C)O3 (stereo not shown) [compound 2500]
Response: 1140

Query: Record request: LD50 value, item C=CCNC(=O)OC1CC2C(=C)C3OC(OC)C2C1(C)O3 (stereo not shown) [Compound No. 2286]
Response: 970

Query: Record request: LD50 value, item COC1OC2OC3(C)C(OC(=O)NC4CCCCC4)CC(C2C)C13 (stereo not shown) [Compound No. 2365]
Response: 1470

Query: Record request: LD50 value, item C=C1C2OC(OC)C3C1CC(OC(=O)NC)C3(C)O2 (stereo not shown) [compound 2504]
Response: 528

Query: Record request: LD50 value, item CCCNC(=O)OC1CC2C(C)C3OC(OC)C2C1(C)O3 (stereo not shown) [compound 2364]
Response: 327

Query: Record request: LD50 value, item C=C1C2OC(OC)C3C1CC(OC(=O)NCCC)C3(C)O2 (stereo not shown) [compound 2388]
Response: 619

Query: Record request: LD50 value, item C=CCNC(=O)OC1CC2C(=C)C3OC(OCC)C2C1(C)O3 (stereo not shown) [compound 2658]
Response: 470

Query: Record request: LD50 value, item COC1OC2OC3(C)C(OC(=O)NC(C)(C)C)CC(C2C)C13 (stereo not shown) [compound 2328]
Response: 1470

Query: Record request: LD50 value, item C=CCNC(=O)OC1CC2C(C)C3OC(OC)C2C1(C)O3 (stereo not shown) [Compound No. 2274]
Response: 339

Query: Record request: LD50 value, item CCCCNC(=O)OC1CC2C(C)C3OC(OC)C2C1(C)O3 (stereo not shown) [compound 2327]
Response: 690
